- Test Protocol: WST-1 cell proliferation (cytotoxicity) assay, L929
- Assay type: cell-based
- Condition: L929 mouse fibroblasts, WST-1, incubated for 5 days
Readout Name: IC50 at 5 days

{"Smiles String": "COC1=C(Br)[C@H](O)[C@@]2(C=C1Br)CC(C(=O)NCCCOc1c(Br)cc(CCNC(=O)C3=NO[C@]4(C=C(Br)C(OC)=C(Br)[C@@H]4O)C3)cc1Br)=NO2", "Result": "118 µM"}

Consider the compound COC1=C(Br)[C@H](O)[C@@]2(C=C1Br)CC(C(=O)NCCCOc1ccc(CCN)cc1Br)=NO2 and give its measured IC50 at 5 days.
94.3 µM

Consider the compound CNc1nc(CCCNC(=O)C2=NO[C@]3(C=C(Br)C(OC)=C(Br)[C@@H]3O)C2)c[nH]1 and give its measured IC50 at 5 days.
55.9 µM

###

- Test Protocol: WST-1 cell proliferation (cytotoxicity) assay, KB-31
- Format: cell-based
- Condition: human, KB-31 epidermoid carcinoma cells, WST-1, incubated for 5 days
Readout Name: IC50 at 5 days (µM)
Return type: number; implicit unit µM.

Here is how some molecules turned out for IC50 at 5 days.
{"Molecule": "COC1=C(Br)[C@H](O)[C@@]2(C=C1Br)CC(C(=O)NC[C@@H](O)c1cc(Br)c(OCCCNC(C)=O)c(Br)c1)=NO2 [Compound 2, aplysinin A]", "IC50 at 5 days / µM": 26}
{"Molecule": "COC1=C(Br)[C@H](O)[C@@]2(C=C1Br)CC(C(=O)NCCCOc1ccc([C@H](O)CNC(=O)C3=NO[C@]4(C=C(Br)C(OC)=C(Br)[C@@H]4O)C3)cc1Br)=NO2 [Compound 1, 14-debromo-11-deoxyfistularin-3]", "IC50 at 5 days / µM": 69}

Consider the molecule CNc1nc(CCCNC(=O)C2=NO[C@]3(C=C(Br)C(OC)=C(Br)[C@@H]3O)C2)c[nH]1 [Compound 15, N-methyl-aerophobin-2] and give its measured IC50 at 5 days.
48.9

###

- Test Protocol: Acute toxicity, WST-1 assay, FS4-LTM
- Assay type: cell-based
- Condition: human, FS4-LTM conditionally immortalized fibroblasts, FS4-LTM conditional immortalization human fibroblasts, incubated for 24 hours; read-out: Cytotoxicity (acute toxicity) IC50 FS4-LTM
Readout Name: IC50 at 24 hours (µM)
Return type: number; implicit unit µM.

{"Molecule": "COC1=C(Br)[C@H](O)[C@@]2(C=C1Br)CC(C(=O)NC[C@@H](O)c1cc(Br)c(OCCCNC(C)=O)c(Br)c1)=NO2 [Compound 2, aplysinin A]", "IC50 at 24 hours / µM": 32}
{"Molecule": "COC1=C(Br)[C@H](O)[C@@]2(C=C1Br)CC(C(=O)NCCCOc1c(Br)cc(C(O)CNC(=O)C3=NO[C@]4(C=C(Br)C(OC)=C(Br)[C@@H]4O)C3)cc1Br)=NO2 (stereo partly drawn) [Compound 8, 11-deoxyfistularin-3]", "IC50 at 24 hours / µM": 87.3}

Field: next molecule
Consider the molecule COC1=C(Br)[C@H](O)[C@@]2(C=C1Br)CC(C(=O)NCCc1cc(Br)c(OCCCN)c(Br)c1)=NO2 [Compound 10, hexadellin B] and give its measured IC50 at 24 hours.
73.4

###

- Test Protocol: WST-1 cell proliferation (cytotoxicity) assay, MCF-7
- Assay type: cell-based
- Condition: human; MCF-7 breast cancer cell line, WST-1, incubated for 5 days
The molecules listed here are annotated with their IC50 at 5 days.
Return type: number; implicit unit µM.

{"Molecule": "COC1=C(Br)[C@H](O)[C@@]2(C=C1Br)CC(C(=O)NCC(O)COc1c(Br)cc(C(O)CNC(=O)C3=NO[C@]4(C=C(Br)C(OC)=C(Br)[C@@H]4O)C3)cc1Br)=NO2 (stereo partly drawn)", "IC50 at 5 days, µM": 207}
{"Molecule": "COC1=C(Br)[C@H](O)[C@@]2(C=C1Br)CC(C(=O)NCCc1cc(Br)c(OCC(O)CNC(=O)C3=NO[C@]4(C=C(Br)C(OC)=C(Br)[C@@H]4O)C3)c(Br)c1)=NO2 (stereo partly drawn)", "IC50 at 5 days, µM": 60}

Field: next molecule
Consider the molecule COC1=C(Br)[C@@H]2OC(=O)C[C@]2(O)C=C1Br and give its measured IC50 at 5 days.
96.3

###

- Test Protocol: WST-1 cell proliferation (cytotoxicity) assay, MCF-7
- Type: cell-based
- Condition: human, MCF-7 breast cancer cells, MCF-7 breast cancer cell line, WST-1, incubated for 5 days
The compounds listed here are annotated with their IC50 at 5 days.

{"Compound": "COC1=C(Br)[C@H](O)[C@@]2(C=C1Br)CC(C(=O)NCCCOc1c(Br)cc(C(O)CNC(=O)C3=NO[C@]4(C=C(Br)C(OC)=C(Br)[C@@H]4O)C3)cc1Br)=NO2 (some centres unmarked) [Compound 8, 11-deoxyfistularin-3]", "Result": "47.2 µM"}
{"Compound": "COC1=C(Br)[C@H](O)[C@@]2(C=C1Br)CC(C(=O)NCCCOc1ccc(CCN)cc1Br)=NO2 [Compound 4, 14-debromoaraplysillin I]", "Result": "78.6 µM"}
{"Compound": "COC1=C(Br)[C@H](O)[C@@]2(C=C1Br)CC(C(=O)NCCc1cc(Br)c(OCCCN)c(Br)c1)=NO2 [Compound 10, hexadellin B]", "Result": "90.6 µM"}
{"Compound": "COC(=O)Cc1cc(Br)c(O)c(Br)c1O [Compound 17, subereaphenol B]", "Result": "64.8 µM"}

Field: next compound
Consider the compound COC1=C(Br)[C@H](O)[C@@]2(C=C1Br)CC(C(=O)NC[C@@H](O)c1cc(Br)c(OCCCNC(C)=O)c(Br)c1)=NO2 [Compound 2, aplysinin A] and give its measured IC50 at 5 days.
78 µM
